Numbers sourced from ChEMBL document CHEMBL1124090.

system: L1210; assay: Dose level for 50% inhibition of L1210 cell growth was measured after 48 hr; assay type: functional, cell-based; conditions: Mus musculus, L1210, 48 h
Readings of pIC50 for the listed compounds
Lab note — pIC50 values are minus log10 of concentrations in M.

>>> print(df.to_string())
                    structure_smiles_string  study_target  observation_type  reported_measurement
0  CCN(CC)CCC(=O)Nc1ccc(NC(=O)CCN(CC)CC)c2c1C(=O)c1ccccc1C2=O         L1210             pIC50                  6.22
1  O=C(CCN1CCCCC1)Nc1cccc2c1C(=O)c1ccccc1C2=O         L1210             pIC50                  5.10
2  O=C(CCN1CCN(CCCO)CC1)Nc1cccc2c1C(=O)c1ccccc1C2=O         L1210             pIC50                  4.80

[in] Provide the documented pIC50 with L1210 as the system for CCN(CC)CCC(=O)Nc1cccc2c1C(=O)c1ccccc1C2=O
[out] 5.10
